# SYSTEM: TNFα / TNFα receptor (TNFα R1/Fc) (Homo sapiens, UniProt P01375)
# Construct: purchased R&D Systems
# Sequence (P01375 77-233 limits assumed, species assumed): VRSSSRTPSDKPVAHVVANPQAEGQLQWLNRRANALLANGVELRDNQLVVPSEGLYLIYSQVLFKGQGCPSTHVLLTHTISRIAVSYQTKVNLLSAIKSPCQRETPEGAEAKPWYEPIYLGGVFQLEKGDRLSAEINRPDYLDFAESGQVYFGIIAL
# EXPERIMENT DESCRIPTION: Inhibition of binding of TNFα to the TNFα receptor (plate ELISA competition)
# STUDY CONDITIONS: Table 2; read-out: Activity (IC50, inhibition of TNFα binding to TNFα R1/Fc)
pIC50: −log10 of the molar value.
PARAMETER MEASURED: pIC50

| COMPOUND | RESULT VALUE |
| --- | --- |
| O=C1CCC(=O)N[C@H](CCc2ccccc2)C(=O)N[C@@H](Cc2ccc(-c3cc(F)cc(F)c3)cc2)C(=O)N[C@H](Cc2ccccc2)C(=O)N[C@H](C(=O)O)Cc2ccc(cc2)N1 | 4.00 to 4.52 |

Let us move to another entry and its pIC50.
**Q:** Dear colleague, I am looking for the recorded pIC50 of the following compound: `COc1ccc(C[C@@H]2NC(=O)[C@@H](Cc3cccs3)NC(=O)COc3ccc(cc3)C[C@@H](C(=O)O)NC(=O)[C@@H](CCc3ccccc3)NC2=O)cc1OC`
**A:** < 4.00

---

Listing of recorded pIC50 by entry.
# SYSTEM: TNFα / TNFα receptor (TNFα R1/Fc) (Homo sapiens, UniProt P01375)
# Construct: purchased R&D Systems
# EXPERIMENT DESCRIPTION: Inhibition of binding of TNFα to the TNFα receptor (plate ELISA competition)
# STUDY CONDITIONS: Activity (IC50, inhibition of TNFα binding to TNFα R1/Fc), Table 2
pIC50: −log10 of the molar value.

Before answering, review these 2 worked examples.
| STRUCTURE STRING | pIC50 |
| --- | --- |
| O=C1COc2ccc(cc2)C[C@@H](C(=O)NCS(=O)(=O)O)NC(=O)[C@H](Cc2ccc(O)cc2)NC(=O)[C@@H](Cc2ccc(-c3ccccc3)cc2)NC(=O)[C@H](Cc2cccs2)N1 | 4.52 to 5.00 |
| O=C1COc2ccc(cc2)C[C@@H](C(=O)N[C@@H](CCc2ccccc2)C(=O)O)NC(=O)[C@H](Cc2ccccc2)NC(=O)[C@H](Cc2ccc(-c3ccccc3)cc2)NC(=O)[C@H](Cc2cccs2)N1 | > 5.00 |

Let us move to another entry and its pIC50.
**Q:** Dear colleague, I am looking for the recorded pIC50 of the following molecule: `O=C1COc2ccc(cc2)C[C@H](C(=O)N[C@H](CCc2ccccc2)C(=O)O)NC(=O)[C@H](CCc2ccccc2)NC(=O)[C@@H](Cc2ccc(-c3ccccc3)cc2)NC(=O)[C@H](Cc2c[nH]c3ccccc23)N1`
**A:** > 5.00

---

Listing of recorded pIC50 by entry.
# SYSTEM: TNFα / TNFα receptor (TNFα R1/Fc) (Homo sapiens, UniProt P01375)
# Construct: purchased R&D Systems
# EXPERIMENT DESCRIPTION: Inhibition of binding of TNFα to the TNFα receptor (plate ELISA competition)
# STUDY CONDITIONS: Table 2; read-out: Activity (IC50, inhibition of TNFα binding to TNFα R1/Fc)
pIC50: −log10 of the molar value. Numbered stars: 1 amine (or outer) side, 2 acyl side, 3 side chain; on linkers, the order of the positions; unused ones are H or OH. Bridge positions count the residues as written; N and C are the ends. Square brackets hold non-standard residues; d marks the D form. Peptide text beside a SMILES is read from it. Bip = N[C@@H](Cc1ccc(-c2ccccc2)cc1)C(=O)O; Phe(4-NH2) = Nc1ccc(C[C@H](N)C(=O)O)cc1; d2Thi = N[C@H](Cc1cccs1)C(=O)O; Suc = O=C(CCC(=O)[*:2])[*:1]

Before answering, review these 3 worked examples.
| MOLECULE | pIC50 |
| --- | --- |
| C[C@@H](NC(=O)[C@@H]1Cc2ccc(cc2)NC(=O)CCC(=O)N[C@H](Cc2cccs2)C(=O)N[C@@H](Cc2ccc(-c3ccccc3)cc2)C(=O)N[C@H](Cc2ccccc2)C(=O)N1)C(=O)O [Compound 24] ([d2Thi][Bip][dF][Phe(4-NH2)][dA]-OH; linker N-4 via Suc) | 4.00 to 4.52 |
| O=C(O)C[C@H](NC(=O)[C@@H]1Cc2ccc(cc2)NC(=O)CCC(=O)N[C@H](Cc2cccs2)C(=O)N[C@@H](Cc2ccc(-c3ccccc3)cc2)C(=O)N[C@H](Cc2ccccc2)C(=O)N1)C(=O)O [Compound 27] ([d2Thi][Bip][dF][Phe(4-NH2)]D-OH; linker N-4 via Suc) | < 4.00 |
| COc1ccc(C[C@@H]2NC(=O)[C@@H](Cc3cccs3)NC(=O)CCC(=O)Nc3ccc(cc3)C[C@@H](C(=O)O)NC(=O)[C@@H](Cc3ccccc3)NC2=O)cc1 [Compound 104] ([d2Thi]Y(Me)[dF][Phe(4-NH2)]-OH; linker N-4 via Suc) | < 4.00 |

Let us move to another entry and its pIC50.
**Q:** Query for TNFα / TNFα receptor (TNFα R1/Fc) (Homo sapiens, UniProt P01375): what pIC50 does the record show for `O=C1COc2ccc(cc2)C[C@@H](C(=O)O)NC(=O)[C@@H](CCc2ccccc2)NC(=O)[C@H](Cc2ccc(Cl)cc2Cl)NC(=O)[C@@H](Cc2cccs2)N1` ?
**A:** 4.00 to 4.52

---

Listing of recorded pIC50 by entry.
# SYSTEM: TNFα / TNFα receptor (TNFα R1/Fc) (Homo sapiens, UniProt P01375)
# Construct: purchased R&D Systems
# EXPERIMENT DESCRIPTION: Inhibition of binding of TNFα to the TNFα receptor (plate ELISA competition)
# STUDY CONDITIONS: Table 2; read-out: Activity (IC50, inhibition of TNFα binding to TNFα R1/Fc)
pIC50: −log10 of the molar value. Numbered stars: 1 amine (or outer) side, 2 acyl side, 3 side chain; on linkers, the order of the positions; unused ones are H or OH. Bridge positions count the residues as written; N and C are the ends. Square brackets hold non-standard residues; d marks the D form. Peptide text beside a SMILES is read from it. Bip = N[C@@H](Cc1ccc(-c2ccccc2)cc1)C(=O)O; Phe(4-NH2) = Nc1ccc(C[C@H](N)C(=O)O)cc1; Phe(4-Me) = Cc1ccc(C[C@H](N)C(=O)O)cc1; d(hPhe) = N[C@H](CCc1ccccc1)C(=O)O; d2Thi = N[C@H](Cc1cccs1)C(=O)O; Suc = O=C(CCC(=O)[*:2])[*:1]; Nphe = O=C(O)CNCc1ccccc1; GABA = NCCCC(=O)O

| COMPOUND | RESULT VALUE |
| --- | --- |
| O=C1N[C@H](Cc2ccco2)C(=O)N[C@@H](C(=O)O)Cc2ccc(cc2)NC(=O)[C@H](O)[C@@H](O)C(=O)N[C@H](Cc2cccs2)C(=O)N[C@H]1Cc1ccc(Br)cc1 | < 4.00 |

**Q:** Dear colleague, I am looking for the recorded pIC50 of the following compound: O=C(O)CCCNC(=O)[C@@H]1Cc2ccc(cc2)NC(=O)CCC(=O)N[C@H](CCc2ccccc2)C(=O)N[C@@H](Cc2ccc(-c3ccccc3)cc2)C(=O)N[C@H](Cc2ccccc2)C(=O)N1 [Compound 354] ([d(hPhe)][Bip][dF][Phe(4-NH2)][GABA]-OH; linker N-4 via Suc)
**A:** < 4.00

**Q:** Another compound to look at: O=C(O)CCCNC(=O)[C@@H]1Cc2ccc(cc2)NC(=O)CCC(=O)N[C@H](Cc2ccccc2)C(=O)N[C@@H](Cc2ccc(-c3ccccc3)cc2)C(=O)N[C@H](CCc2ccccc2)C(=O)N1 [Compound 460] ([dF][Bip][d(hPhe)][Phe(4-NH2)][GABA]-OH; linker N-4 via Suc)
**A:** < 4.00

**Q:** Another compound to look at: O=C(O)CN(Cc1ccccc1)C(=O)[C@@H]1Cc2ccc(cc2)NC(=O)CCC(=O)N[C@H](Cc2cccs2)C(=O)N[C@@H](Cc2ccc(-c3ccccc3)cc2)C(=O)N[C@H](Cc2ccccc2)C(=O)N1 [Compound 36] ([d2Thi][Bip][dF][Phe(4-NH2)][Nphe]-OH; linker N-4 via Suc)
**A:** > 5.00

**Q:** Another compound to look at: C[C@@H](NC(=O)[C@@H]1Cc2ccc(cc2)NC(=O)CCC(=O)N[C@H](Cc2ccccc2)C(=O)N[C@@H](Cc2ccc(-c3ccccc3)cc2)C(=O)N[C@H](CCc2ccccc2)C(=O)N1)C(=O)O [Compound 457] ([dF][Bip][d(hPhe)][Phe(4-NH2)][dA]-OH; linker N-4 via Suc)
**A:** < 4.00

**Q:** Another compound to look at: Cc1ccc(C[C@@H]2NC(=O)[C@@H](Cc3cccs3)NC(=O)CCC(=O)Nc3ccc(cc3)C[C@@H](C(=O)O)NC(=O)[C@@H](Cc3ccccc3)NC2=O)cc1 [Compound 103] ([d2Thi][Phe(4-Me)][dF][Phe(4-NH2)]-OH; linker N-4 via Suc)
**A:** < 4.00

**Q:** Another compound to look at: `O=C1COc2ccc(cc2)C[C@@H](C(=O)O)NC(=O)[C@H](CCc2ccccc2)NC(=O)[C@@H](Cc2ccc(-c3ccccn3)cc2)NC(=O)[C@H](Cc2ccccn2)N1`
**A:** < 4.00

**Q:** Another compound to look at: `O=C1COc2ccc(cc2)C[C@@H](C(=O)N[C@H](CCc2ccccc2)C(=O)O)NC(=O)[C@H](CCc2ccccc2)NC(=O)[C@@H](Cc2ccc(-c3ccccc3)cc2)NC(=O)[C@H](Cc2ccncc2)N1`
**A:** > 5.00
